Tested on: biotinyl-Leu-oxazolone
Assay: self-aminoacylation, catalytic enhancement (BLO) (fold over background); higher = more active; k-Seq, kA / k0A0; sequences stand for … in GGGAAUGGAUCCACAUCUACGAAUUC…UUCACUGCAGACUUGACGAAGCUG
Variants at the floor of the assay were thinned out.
recorded endpoint: self-aminoacylation
Answers are plain numbers.

{"residue string": "AUUCACCUAUAUCAUCGGGUG [Fam2.2 aminoacylation ribozyme variant]", "recorded endpoint": "self-aminoacylation", "recorded number": 6.53}

Quick batch: self-aminoacylation for everything below.
1. CCACACUUCAAGCAAUAGGAC [Fam1B.1 aminoacylation ribozyme variant]
2. CCACACUUCGAGCAAUUGGUC [Fam1B.1 aminoacylation ribozyme variant]
3. ACUCACCUAGAUCAUCGGGUG [Fam2.2 aminoacylation ribozyme variant]
4. CCCCACUUCAAGCCAUCGGUC [Fam1B.1 aminoacylation ribozyme variant]
5. AUUACCGUGGUCAUCGAGUAA [Fam2.1 aminoacylation ribozyme variant]
6. AAGUUUGCUAAUAGUUGCAAU [Fam3.1 aminoacylation ribozyme variant]
7. AUGACCCUGGGCAUCGAGUGA [Fam2.1 aminoacylation ribozyme variant]
8. AUUACCCUGGUCAAGGAGUGA [Fam2.1 aminoacylation ribozyme variant]

Return:
[0.479, 0.747, 3.38, 2.63, 1.56, 0.88, 8.34, 2.87]

Batch lookup, self-aminoacylation per entry.
1. GAGUUUACUAAUAGUCGCAAG [Fam3.1 aminoacylation ribozyme variant]
2. AUUCACCUAGGCUAUCGGGUG [Fam2.2 aminoacylation ribozyme variant]
3. AUGACCCUGGUCAUCGUGUGA [Fam2.1 aminoacylation ribozyme variant]
4. CUACUUCAAACCAUCGGACUG [Fam1A.1 aminoacylation ribozyme variant]
5. AUUCACCAAUGUCAUCGGGUG [Fam2.2 aminoacylation ribozyme variant]

Return:
[1.59, 4.84, 2.88, 0.747, 12.6]

Give me self-aminoacylation for each of these sequences, listed below.
1. AUUCACUUAGGUCAUCGGGCG [Fam2.2 aminoacylation ribozyme variant]
2. AAGUUUGAUAAUAGUCGUAAG [Fam3.1 aminoacylation ribozyme variant]
3. AUUCACCUUGCUCAUCGGGUG [Fam2.2 aminoacylation ribozyme variant]
4. AAGUUUGUUAAUAUUCGCAAG [Fam3.1 aminoacylation ribozyme variant]
5. AAGUUUGCUAAUAGUCCCACG [Fam3.1 aminoacylation ribozyme variant]
6. CUACUUCAAACAAUCUGUCUU [Fam1A.1 aminoacylation ribozyme variant]
7. CUACAUCAAAGAAUCGGUCUG [Fam1A.1 aminoacylation ribozyme variant]
8. ACUACCCUGGUCGUCGAGUGA [Fam2.1 aminoacylation ribozyme variant]

Return:
1: 4.02; 2: 0.65; 3: 2.63; 4: 1.45; 5: 0.838; 6: 0.576; 7: 0.592; 8: 1.95
